System: ATP;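 further: ATP exposure 15 min at 22 °C before imaging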
Assay: switch fluorescence ratio, 500 uM ATP over buffer (Cy3 cluster intensity, sum of 5 cycles each) (fold (ratio)); higher = stronger signal-on switching upon ATP binding; sequences stand for … in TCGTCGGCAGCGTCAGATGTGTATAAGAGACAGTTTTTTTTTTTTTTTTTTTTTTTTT…TC
Conditions: aptamer strand: ATP DNA aptamer (quencher-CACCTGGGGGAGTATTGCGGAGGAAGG + anchor), 100 nM annealed; ATP concentration: 500 uM
switch fluorescence ratio: recorded values
No unit in the answer, only the number.

Solved cases below.
CCGACGTAGG; 2.49
AAACCCTGAG; 1.14
TGAACGGGCC; 1.04
CGGTTGGGGA; 0.985
GGTCAGGCGA; 0.989
AGAGGGCCGG; 1.03
TATTATGGGA; 0.991
ATGCTACCTT; 1.1
CGCTGTACAG; 0.96
CATTTAAGAT; 0.997

Query: Give switch fluorescence ratio for `ATGCGACGCT` tested on ATP.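 Further: ATP exposure 15 min at 22 °C before imaging.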
Response: 1.09

Query: Give switch fluorescence ratio for `TTTCGTTCTC` tested on ATP.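 Further: ATP exposure 15 min at 22 °C before imaging.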
Response: 1.01

Query: Give switch fluorescence ratio for `GGATAAGGAG` tested on ATP.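 Further: ATP exposure 15 min at 22 °C before imaging.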
Response: 0.99

Query: Give switch fluorescence ratio for `GATTCGATCT` tested on ATP.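 Further: ATP exposure 15 min at 22 °C before imaging.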
Response: 0.993

Query: Give switch fluorescence ratio for `TCCGGGGGGG` tested on ATP.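 Further: ATP exposure 15 min at 22 °C before imaging.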
Response: 1.06

This collection of values is drawn from the supplement of paper PMC10126150.
